Tested on: Trypanosoma brucei
assay.method.text: DNDI: Inhibition of Human African Trypanosomiasis, SBRI 427, in vitro at 2 ug.mL-1
Format: functional
Screen size: about 4,400 compounds; about 390 (8.9%) showed an effect of 50% or more. The full list was thinned out, with strong results kept by preference.
Please note: t applies when % inhibition is 20% or greater, and f applies otherwise.

compound | assigned.class
CC(C)(C)c1ccc(CNCc2coc(-c3cccc4ccccc34)n2)cc1 | f
Cc1ccc(-c2nc(CN(c3ccccc3)C(C)C)co2)cc1 | t
COc1ccc(CCN(C)Cc2coc(-c3ccc(Br)cc3)n2)cc1OC | t

(Q) Record COCC(C)NCc1coc(-c2ccccc2Cl)n1 (stereo not drawn) ; criterion: % inhibition no lower than 20%. Met?
(A) f

(Q) Please check the record `Cc1cc(Oc2nc(C)ccc2/C(=N/O)N2CCN(c3ccccc3)CC2)cc(C(C)C)c1` and state if its % inhibition is at or above 20%.
(A) f

(Q) Form field: % inhibition at least 20%? Entry: `CCCN(CC1CC1)/C(=N\O)c1ccc(C)nc1Oc1ccc(OC)cc1`
(A) t

* * *

System: Trypanosoma brucei
assay.method.text: DNDI: Inhibition of Human African Trypanosomiasis, SBRI 427, in vitro at 2 ug.mL-1
Type: functional
Screen size: about 4,400 compounds; about 390 (8.9%) showed an effect of 50% or more. The sample holds strong results, similar compounds and a random draw of the others, so the mix is not that of the screen.
measured.property: % inhibition (%)
Numbers only, in %.

Here is how some compounds turned out for % inhibition.
compound | % inhibition (%)
CSc1ccc(Oc2ccc(/C(=N/O)NC3CC(C)CC(C)(C)C3)cn2)cc1 (configuration not stated) | -8
COc1cccc(OC)c1CNCc1coc(-c2ccc(Br)cc2)n1 | 7

Would you mind listing % inhibition for each of the following compounds?
1. C=COCCCNCc1coc(-c2ccc(C(C)(C)C)cc2)n1
2. CCCCNCc1coc(-c2ccc(C(C)(C)C)cc2)n1
3. COCCN(/C(=N\O)c1ccnc(Oc2ccc(Cl)cc2)c1)C(C)C
4. COc1ccc(-c2nc(CNCC3CCCCC3)co2)cc1

(A)
[53, 99, 28, 10]

Count: 4. Required value per item: % inhibition.
1. COCC(C)N/C(=N\O)c1ccnc(Oc2cccc(F)c2)c1 (configuration not stated)
2. COCC(C)N/C(=N\O)c1ccnc(Oc2ccc(SC)cc2)c1 (configuration not stated)
3. c1ccc(-c2nc(CNCC3CC3)co2)cc1
4. COCC(C)N/C(=N\O)c1ccnc(Oc2cccc(C(C)C)c2)c1 (configuration not stated)

(A)
1: 8; 2: 86; 3: 28; 4: 71

Look at each compound and report its % inhibition.
1. O/N=C(\NCc1c(F)cccc1F)c1cccnc1Oc1c(F)cccc1F
2. Cc1ccc(/C(=N/O)NC2CCCC2)c(Oc2cccc(C(C)C)c2)n1

(A)
95
3

* * *

System: Trypanosoma brucei
assay.method.text: DNDI: Inhibition of Human African Trypanosomiasis, SBRI 427, in vitro at 2 ug.mL-1
Assay type: functional
Screen size: about 4,400 compounds; about 390 (8.9%) showed an effect of 50% or more. This excerpt belongs to a sample that is enriched for strong results.
YES means recorded % inhibition is 20% or above; NO means it is below 20%.

(Q) Confirm if % inhibition reported for the compound `Cc1cc(N2CCN(Cc3coc(-c4ccccc4Cl)n3)CC2)c2ccccc2n1` is 20% or above.
(A) NO

(Q) Evaluate CC1CCC(N/C(=N\O)c2ccnc(Oc3cccc4cccnc34)c2)CC1 (configuration not stated) : % inhibition at minimum 20%?
(A) YES

(Q) // inclusive: % inhibition at least 20%? input: Clc1ccc(-c2nc(CNC3CCN(Cc4ccccc4)C3)co2)c(Cl)c1 (configuration not stated)
(A) NO

(Q) Reported % inhibition at or above 20%? `CCN(Cc1coc(-c2cccc3ccccc23)n1)C(C)C`
(A) NO

(Q) Evaluate `CC(C)c1ccc(NCc2coc(-c3ccc(F)cc3)n2)cc1` : % inhibition at minimum 20%?
(A) NO

(Q) Reported % inhibition reaches at least 20% for Cc1ccc2cccc(Oc3cc(/C(=N/O)N4C(C)CCCC4C)ccn3)c2n1 (configuration not stated) ?
(A) NO

(Q) Given the entry `Cc1cc(N2CCN(Cc3coc(-c4cccc5ccccc45)n3)CC2)c2ccccc2n1` , answer whether its % inhibition meets or surpasses 20%.
(A) YES

(Q) Determine whether this compound has % inhibition no lower than 20%: `Cn1nc(C(C)(C)C)cc1NCc1coc(-c2ccc(C(C)(C)C)cc2)n1`
(A) NO

(Q) Form field: % inhibition at least 20%? Entry: `COc1ccc(-c2nc(CN3CCC(N4CCCC4)CC3)co2)cc1`
(A) NO

(Q) Please tell me: is the compound `Cc1cc(C)cc(Oc2ccc(/C(=N/O)N3CCCCC3)cn2)c1` at or over 20% in terms of % inhibition?
(A) NO

(Q) Form field: % inhibition at least 20%? Entry: `Cc1ccc2cccc(Oc3cc(/C(=N/O)NCc4c(F)cccc4F)ccn3)c2n1`
(A) NO

(Q) Determine whether this compound has % inhibition no lower than 20%: `Cc1cc(C)cc(CN/C(=N\O)c2ccnc(Oc3cccc4ccc(C)nc34)c2)c1`
(A) NO

(Q) Test whether the compound Oc1ccc(-c2nc(CNC3C[C@H]4CC[C@@H]3C4)co2)cc1 (some centres not stated) records % inhibition of 20% or higher.
(A) NO

(Q) Assess whether reported % inhibition for `Clc1ccc(-c2nc(CNC3CCN(Cc4ccccc4)CC3)co2)c(Cl)c1` sits at 20% or higher.
(A) YES

(Q) Tell me whether % inhibition is at least 20% here: CCCCC(CC)CNCc1coc(-c2ccc(Br)cc2)n1 (configuration not stated)
(A) NO

(Q) Is it the case that Clc1ccc(-c2nc(CNC3CCc4ccccc43)co2)c(Cl)c1 (configuration not stated) has % inhibition reaching or exceeding 20%?
(A) NO

(Q) Hello, I need to know if `Cc1ccccc1-c1nc(CN(C)Cc2ccco2)co1` has measured % inhibition not below 20%. Thanks!
(A) NO

(Q) Decide: % inhibition of `Cc1ccc(-c2nc(CN3CCN(c4cc(C)nc5ccccc45)CC3)co2)cc1` >= 20%?
(A) NO

(Q) Answer whether % inhibition of `Cc1ccc2cccc(Oc3ccc(/C(=N/O)n4cccn4)cn3)c2n1` is greater than or equal to 20%.
(A) NO

(Q) Determine whether this compound has % inhibition no lower than 20%: Clc1ccc(-c2nc(CNC3C[C@H]4CC[C@@H]3C4)co2)c(Cl)c1 (some centres not stated)
(A) YES

(Q) API: above_or_equal(metric=% inhibition, cutoff=20%) for item COc1ccc(-c2nc(CN(C)C3CCN(Cc4ccccc4)C3)co2)cc1 (configuration not stated)
(A) NO

* * *

Exercise: state measured % inhibition for each of the compounds provided.
Tested on: Trypanosoma brucei
assay.method.text: DNDI: Inhibition of Human African Trypanosomiasis, SBRI 427, in vitro at 2 ug.mL-1
Format: functional
Screen size: about 4,400 compounds; about 390 (8.9%) showed an effect of 50% or more. This is one part of a sample in which strong results are shown more often than they occur.
One number for each entry, in %.

compound | experimental.value
CC(C)(C)COc1ncccc1/C(=N/O)NCc1ccccn1 | 12
COCC(C)N/C(=N\O)c1cccnc1Oc1ccc(C)c2c1CCC2 (configuration not stated) | 12
Clc1ccccc1-c1nc(CNC(c2ccccc2)c2ccccc2)co1 | 6
O/N=C(/c1ccnc(Oc2cccc(F)c2)c1)N1CCC=N1 | 4
Cc1ccc(/C(=N/O)NC2CCC2)c(Oc2ccc3oc4ccccc4c3c2)n1 | 101
Cc1ccc(Oc2ncccc2/C(=N/O)N2CC(C)CC(C)C2)c2c1CCC2 (configuration not stated) | 6
COCC(C)N/C(=N\O)c1ccc(C)nc1Oc1ccc(SC)c(C)c1 (configuration not stated) | -10
Cc1ccc(Oc2ncccc2/C(=N/O)NCC2CC2)c2c1CCC2 | 99

Provide reported % inhibition for each item, in the same order as listed.
1. COc1ccc(Oc2cc(/C(=N/O)N3CCN(c4ccccc4)CC3)ccn2)cc1
2. Cc1cn(Cc2coc(-c3cccc(F)c3)n2)c(C)n1
3. CC(C)c1cccc(Oc2cc(/C(=N/O)N3CCN(C)CC3)ccn2)c1
4. Cc1ccc(Oc2cc(/C(=N/O)NCC3CC3)ccn2)c2c1CCC2
5. O/N=C(/c1ccnc(Oc2ccc(F)c(Cl)c2)c1)N1CCN(c2ccc(F)cc2)CC1
6. Cc1ccc(/C(=N/O)NCC2CC2)c(Oc2ccc3oc4ccccc4c3c2)n1
7. CCOc1ccc(Oc2cc(/C(=N/O)N3Cc4ccccc4C3)ccn2)cc1

(A)
1. 22
2. 5
3. 4
4. 40
5. 34
6. 5
7. 3

* * *

Test system: Trypanosoma brucei
assay.method.text: DNDI: Inhibition of Human African Trypanosomiasis, SBRI 427, in vitro at 2 ug.mL-1
Type: functional
Screen size: about 4,400 compounds; about 390 (8.9%) showed an effect of 50% or more. The list comes from a sample in which strong results are over-represented; it also holds close analogues and randomly drawn compounds.
Please enter YES where % inhibition is greater than or equal to 20%, and NO where it is lower.

record.smiles | assigned.class
COc1ccc(-c2nc(CNCc3c(OC)cccc3OC)co2)cc1 | NO
COc1ccc(CNCc2coc(-c3ccccc3Br)n2)c(OC)c1 | NO

(Q) Check this compound for % inhibition at or above 20%: `COc1cccc(OC)c1CNCc1coc(-c2ccc(C)cc2)n1`
(A) YES

(Q) Identify whether the reported % inhibition of the following compound is 20% or greater: `COc1ccc(CNCc2coc(-c3cccc4ccccc34)n2)c(OC)c1`
(A) YES

(Q) # check: % inhibition of `COc1ccc(CNCc2coc(-c3ccc(C(C)(C)C)cc3)n2)c(OC)c1` is greater than or equal to 20%
(A) YES

(Q) Is the recorded value of % inhibition equal to or greater than 20% for this compound? `COc1ccc(CNCc2coc(-c3ccc(C(F)(F)F)cc3)n2)c(OC)c1`
(A) NO

The measured values listed here are drawn from ChEMBL document CHEMBL1857833.
